Overview of recorded self-cleavage kobs at 640 uM GlcN6P for various variants
B1: glmS ribozyme (parent)
chain: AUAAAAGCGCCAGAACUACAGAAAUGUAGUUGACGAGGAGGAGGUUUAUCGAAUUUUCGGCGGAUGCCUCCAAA

- Variants of: B1
- MEASUREMENT_PROTOCOL: self-cleavage kobs at 640 uM GlcN6P; higher = faster cleavage; RNA array
- CONDITION_INFO: with glucosamine-6-phosphate
Variants at the floor of the assay were thinned out.

Observe how each entry below is paired with its result.
C8G A14C G63A    < 1e-05 s⁻¹
A15C A64G    0.00113 s⁻¹
C8U G66C C71G    < 1e-05 s⁻¹

Prompt: Form field: reported self-cleavage kobs at 640 uM GlcN6P of C50G U57A
Completion: 5.84e-05 s⁻¹

Prompt: What does the data say about its self-cleavage kobs at 640 uM GlcN6P? Entry: G13C G29C G44U C50A G62C
Completion: < 1e-05 s⁻¹

Prompt: Given G41A U65C , state its recorded self-cleavage kobs at 640 uM GlcN6P.
Completion: < 1e-05 s⁻¹

Prompt: Need self-cleavage kobs at 640 uM GlcN6P of G38C A64G , thanks.
Completion: < 1e-05 s⁻¹

Prompt: Entry under review: A12U G40A . Reported self-cleavage kobs at 640 uM GlcN6P?
Completion: 0.0042 s⁻¹

Prompt: self-cleavage kobs at 640 uM GlcN6P lookup needed for A52C A53G A64U , thanks.
Completion: < 1e-05 s⁻¹

Prompt: Would you mind telling me what self-cleavage kobs at 640 uM GlcN6P value was observed for A33C A42C U47G U56G ?
Completion: < 1e-05 s⁻¹

Prompt: Fill blank: measured self-cleavage kobs at 640 uM GlcN6P of the variant A6G G38A C68G is ____.
Completion: < 1e-05 s⁻¹
